- Target or test system: 17β-HSD10 (Homo sapiens, UniProt Q99714)
- Construct: Histev (histidine tag with TEV site) (N, cleaved yes); made in house; host or cells: E. coli BL21-CodonPlus
- Sequence (Q99714 whole entry): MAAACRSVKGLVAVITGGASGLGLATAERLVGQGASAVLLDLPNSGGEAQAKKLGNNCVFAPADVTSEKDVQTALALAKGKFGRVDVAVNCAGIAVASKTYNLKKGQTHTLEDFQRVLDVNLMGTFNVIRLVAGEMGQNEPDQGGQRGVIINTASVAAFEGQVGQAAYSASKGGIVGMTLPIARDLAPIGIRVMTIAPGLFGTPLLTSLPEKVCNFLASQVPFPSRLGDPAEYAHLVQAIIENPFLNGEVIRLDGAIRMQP
- Procedure details: 17β-HSD10 (ABAD) enzyme inhibition assay, NADH oxidation read at 340 nm (primary screen and dose response)
- Type: biochemical
- Condition info: recombinant 17βHSD10 enzyme assay
Assignment: determine reported Max. Effect (%) for the given compounds.
One number for each entry, in %.

> print(dat)
                                   compound  unit.text  readout.value
1  CC(C)CN(C(=O)c1cnccn1)c1cccc(N(C)Cc2c[nH]cn2)c1          %             45
2  CC(C)CN(C(=O)CCc1ccccc1)c1cccc(N(C)Cc2cnc[nH]2)c1          %             72
3  CC(C)CN(C(=O)c1ccccc1Cl)c1cccc(N(C)Cc2c[nH]cn2)c1          %             95
4  CN(Cc1cncn1C(=O)OC(C)(C)C)c1cccc(NC(=O)c2ccccc2F)c1          %              1
5  O=C(c1sccc1Cl)N1CCC[C@H]1c1ccccc1-c1ccnc(O)c1 (racemic)          %             43

For each of the compounds below, state Max. Effect (%).
1. Cc1ncc(CN(C)c2cccc(N(CC(C)C)C(=O)c3ccccc3F)c2)[nH]1 [ESC1002204]
2. COc1cccc(-c2ccccc2[C@H]2CCCN2C(=O)c2cccs2)c1
3. O=C(c1sccc1Cl)N1CCC[C@H]1c1ccccc1-c1cncnc1 (racemic)

1: 97; 2: 96; 3: 59
